target: Bovine full-length RIα Y19A (bovine); experiment: fluorescence polarisation
assay_metric: pKd
# reply with the number alone; pKd is -log10 of concentration in mol/L

Task item: Would you mind telling me what pKd value was observed for VQGNTDEAQEELAWKIAKMIVSDVMQQC (fluorescin-5-maleimide or tetramethylrhodamine-5-maleimide on the Cys that replaces the last residue) [D-AKAP2 AKB peptide (residues 623-650), last residue changed to Cys, fluorescently labeled] ?
Reply: 5.88
